Test protocol: Human HepG2 cell viability assay in 384 well format
Assay type: toxicity, cell-based
Parameters: dose 125 nL, time 70.5 hour; concentration not given beside the values
Cond: HepG2 cells, read-out: Inhibition
Measurement label: cytotoxicity at 70.5 h
Note: a bare number is incomplete; add the unit.

| Molecule | cytotoxicity at 70.5 h |
| --- | --- |
| COc1cc(CN2CCN(c3cccc(OC)c3)C(=O)C2)cc(OC)c1 | -1.7% |

Q. Bench note: what cytotoxicity at 70.5 h did CCCn1nc2c(cc1=O)CN(Cc1c(C)noc1C)CC2 show?
A. -6.66%

Q. Bench note: what cytotoxicity at 70.5 h did C1CCN(CCOC2CCNCC2)C1 show?
A. -2.17%

Q. Bench note: what cytotoxicity at 70.5 h did CCCc1cc(C(=O)N(C)Cc2cccc3ncccc23)n(C)n1 show?
A. -14.7%

Q. Bench note: what cytotoxicity at 70.5 h did CCN(c1ccc(C(=O)NCc2ccnc(C)n2)cc1)C(C)C show?
A. -8.68%

Q. Bench note: what cytotoxicity at 70.5 h did CC(C)N(Cc1cnn(C)c1)CC1CCCN(S(C)(=O)=O)C1 (stereo unspecified) show?
A. 10.1%
